system_under_test: human CSNK1D (Homo sapiens, UniProt P48730)
Sequence (P48730 whole entry): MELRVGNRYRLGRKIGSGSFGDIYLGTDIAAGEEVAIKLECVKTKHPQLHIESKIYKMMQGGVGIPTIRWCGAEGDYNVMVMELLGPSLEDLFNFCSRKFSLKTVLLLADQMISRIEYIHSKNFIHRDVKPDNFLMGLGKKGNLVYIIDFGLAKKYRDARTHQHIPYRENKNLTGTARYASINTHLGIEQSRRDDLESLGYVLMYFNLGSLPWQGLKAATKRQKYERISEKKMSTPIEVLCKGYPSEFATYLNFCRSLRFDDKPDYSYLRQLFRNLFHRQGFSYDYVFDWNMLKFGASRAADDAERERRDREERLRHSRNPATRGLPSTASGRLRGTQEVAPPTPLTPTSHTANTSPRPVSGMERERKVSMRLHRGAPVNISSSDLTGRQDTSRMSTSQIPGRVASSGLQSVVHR
procedure_summary: Whole Cell nBRET CSNK1D Binding Assay
condition_info: living CHO cells stably expressing human CSNK1D tagged with nanoluciferase; NanoBret tracer 130 nM; 2 hours at 37 C
Entries whose IC50 is below 200 nM take 1; entries at or above 200 nM take 0.

Here's an entry: [2H]C([2H])([2H])OC[C@@]1(F)CCc2c(-c3cc(C)nc4[nH]ncc34)c(-c3ccc(F)cn3)nn2C1 (single isomer, unassigned) . Is its IC50 below 200 nM?
0

Please check: IC50 for [2H]C([2H])([2H])C1(C([2H])([2H])[2H])Cn2nc(-c3ccc(F)cn3)c(-c3ccnc4[nH]nc(F)c34)c2CO1 , strictly under 200 nM or not?
1

Quick check: does Cc1cc(-c2c(-c3ccc(F)cc3)nn3c2C2CCC3CC2)c2cn[nH]c2n1 have IC50 under 200 nM?
1

Lab note: IC50 threshold 200 nM. Does this compound come in strictly under it? CC1(C)Cn2nc(-c3ccc(F)cn3)c(-c3c(F)cnc4[nH]ncc34)c2CO1
1

Bench note: check whether Fc1ccc(-c2nn3c(c2-c2ccnc4[nH]ncc24)CC2(C3)CC2(F)F)cc1 (single isomer, unassigned) [Example 251] shows IC50 below 200 nM
1

###

Provide the recorded pIC50 for the entries that follow.
system_under_test: human CSNK1D (Homo sapiens)
procedure_summary: Whole Cell nBRET CSNK1D Binding Assay
condition_info: living CHO cells stably expressing human CSNK1D tagged with nanoluciferase; NanoBret tracer 130 nM; 2 hours at 37 C
Bear in mind: pIC50 is minus log10 of a mol/L concentration; give just that figure.

Return pIC50 for the following molecule: Fc1ccc(-c2nn3c(c2-c2c(F)cnc4[nH]ncc24)CC[C@@H]2C[C@@H]23)nc1 (single isomer, unassigned)
7.02

Look up and state reported pIC50 for CC1(C)CCc2c(-c3ccnc(N)c3)c(-c3ccc(F)cn3)nn2C1
7.27

Read the entry [2H]C([2H])([2H])C1(C([2H])([2H])[2H])Cc2c(-c3c(F)c(C)nc4[nH]ncc34)c(-c3ccc(F)cn3)nn2C1 and write its reported pIC50.
7.54

Item COCC1(F)CCc2c(-c3ccnc4[nH]ncc34)c(-c3ccc(F)cn3)nn2C1 (single isomer, unassigned) : provide pIC50
6.96

###

system_under_test: human CSNK1D (Homo sapiens, UniProt P48730)
procedure_summary: Whole Cell nBRET CSNK1D Binding Assay
condition_info: living CHO cells stably expressing human CSNK1D tagged with nanoluciferase; NanoBret tracer 130 nM; 2 hours at 37 C
pIC50: −log10 of the molar value.
Please use yes whenever pIC50 is not below 7, and no whenever it is.

Check if pIC50 >= 7 (inclusive). Item: Fc1ccc(-c2nn3c(c2-c2ccnc4[nH]ncc24)CO[C@H](C2CCC2)C3)nc1 (single isomer, unassigned) [Example 110]
no

Reported pIC50 reaches at least 7 for COC[C@]1(F)CCc2c(-c3ccnc4[nH]ncc34)c(-c3ccc(F)cn3)nn2C1 (single isomer, unassigned) [Example 300] ?
no

Hello, I need to know if Cc1cc(-c2c(-c3ccc(F)cc3)nn3c2[C@H]2C[C@H]2C3)c2cn[nH]c2n1 (single isomer, unassigned) [Example 277] has measured pIC50 not below 7. Thanks!
yes

Assess whether reported pIC50 for [2H]C([2H])([2H])C1(C([2H])([2H])[2H])Cn2nc(-c3ccc(F)cn3)c(-c3c(F)cnc4[nH]nc(Cl)c34)c2CO1 [Example 403] sits at 7 or higher.
yes

Reported pIC50 at or above 7? Cn1ncc2c(-c3c(-c4ccc(F)cn4)nn4c3COC(C)(C)C4)ccnc21 [Example 153]
no

Decide: is the reported value of pIC50 for [2H]C([2H])([2H])C1(C([2H])([2H])[2H])Cc2c(-c3c(F)cnc4[nH]ncc34)c(-c3ccc(F)cn3)nn2C1 [Example 243] equal to or greater than 7?
yes

I'd appreciate it if you could say whether C[C@H]1OCc2c(-c3ccnc4[nH]ncc34)c(-c3ccc(F)cc3)nn2[C@H]1C (relative stereo) [Example 112] has pIC50 at least equal to 7.
yes
